- TARGET: HMG-CoA-Reduktase (Rattus norvegicus, UniProt P51639)
- Construct: solubilisierten Enzympräparationen aus Lebermikrosomen von Ratten
- Sequence (P51639 1-887): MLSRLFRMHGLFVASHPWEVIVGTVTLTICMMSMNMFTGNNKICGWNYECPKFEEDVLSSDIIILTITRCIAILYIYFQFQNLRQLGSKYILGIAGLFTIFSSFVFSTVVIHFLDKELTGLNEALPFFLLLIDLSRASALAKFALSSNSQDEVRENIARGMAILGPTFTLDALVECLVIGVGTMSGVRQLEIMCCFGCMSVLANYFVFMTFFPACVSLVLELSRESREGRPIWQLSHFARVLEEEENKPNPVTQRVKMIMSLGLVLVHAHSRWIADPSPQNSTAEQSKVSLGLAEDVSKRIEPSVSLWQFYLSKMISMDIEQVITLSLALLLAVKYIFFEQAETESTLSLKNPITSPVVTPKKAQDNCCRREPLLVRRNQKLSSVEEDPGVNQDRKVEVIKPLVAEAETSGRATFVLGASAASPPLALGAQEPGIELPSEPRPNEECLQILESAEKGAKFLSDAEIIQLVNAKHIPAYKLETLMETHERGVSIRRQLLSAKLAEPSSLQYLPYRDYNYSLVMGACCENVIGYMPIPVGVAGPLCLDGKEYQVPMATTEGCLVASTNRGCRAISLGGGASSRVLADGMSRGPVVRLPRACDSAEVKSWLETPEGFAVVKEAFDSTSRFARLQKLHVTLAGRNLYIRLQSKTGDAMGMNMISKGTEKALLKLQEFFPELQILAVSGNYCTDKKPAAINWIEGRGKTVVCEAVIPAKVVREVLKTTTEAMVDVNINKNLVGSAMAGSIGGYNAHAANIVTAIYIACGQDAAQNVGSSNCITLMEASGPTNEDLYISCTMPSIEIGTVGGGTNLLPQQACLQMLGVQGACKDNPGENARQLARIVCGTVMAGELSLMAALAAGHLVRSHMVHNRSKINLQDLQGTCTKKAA
- PROCEDURE_DETAILS: Inhibition of HMG-CoA reductase activity in solubilised enzyme preparations from rat liver microsomes
- CONDITION_CONTEXT: solubilised enzyme from liver microsomes of cholestyramine-induced rats; substrate (S,R)14C-HMG-CoA; mean of 3 parallel samples; read-out: IC50-Wert M
Label yes when IC50 < 100 nM; otherwise no.

molecule="Cc1cc(C)c(OC[C@@H]2C[C@@H](O)CC(=O)O2)c(C(CC(C)C)c2ccc(F)cc2)c1 (stereo partly shown)" class=no
molecule=O=C1C[C@H](O)C[C@@H](COc2c(Cl)cc(Cl)cc2CC2CCCCC2)O1 class=yes
molecule=Cc1cc(Cl)cc(CC2CCCCC2)c1OC[C@@H]1C[C@@H](O)CC(=O)O1 class=yes
molecule=Cc1cc(C)c(OC[C@@H]2C[C@@H](O)CC(=O)O2)c(CCOc2ccc(F)cc2)c1 class=no
molecule=CC(C)(C)C(=O)OCCCc1cc(Cl)cc(CCCOc2ccc(F)cc2)c1OC[C@@H]1C[C@@H](O)CC(=O)O1 class=no
molecule="Cc1cc(C)c(OC[C@@H]2C[C@@H](O)CC(=O)O2)c(C(C)c2ccc(F)cc2)c1 (stereo partly shown)" class=no
molecule=O=C1C[C@H](O)C[C@@H](COc2c(Cl)cc(Cl)cc2-c2ccccc2)O1 class=no
molecule=Cc1cc(C)c(OC[C@@H]2C[C@@H](O)CC(=O)O2)c(CCc2ccc(F)cc2)c1 class=no
molecule=O=C1C[C@H](O)C[C@@H](COc2c(Cl)cc(Cl)cc2C(=O)C2CCCCC2)O1 class=no
molecule=Cc1cc(Cl)cc(CCCOc2ccc(Cl)cc2)c1OC[C@@H]1C[C@@H](O)CC(=O)O1 class=yes
molecule=Cc1cc(Cl)cc(CCCOc2ccc(F)cc2)c1OC[C@@H]1C[C@@H](O)CC(=O)O1 class=yes
molecule=Cc1cc(C)c(OC[C@@H]2C[C@@H](O)CC(=O)O2)c(Cc2ccc(F)cc2)c1 class=no
molecule=C=CCc1cc(Cl)cc(CCCOc2ccc(F)cc2)c1OC[C@@H]1C[C@@H](O)CC(=O)O1 class=no
molecule=Cc1cc(C)c(OC[C@@H]2C[C@@H](O)CC(=O)O2)c(C(c2ccc(F)cc2)c2ccc(F)cc2)c1 class=yes
molecule=Cc1cc(C(c2ccc(F)c(C)c2)c2cc(Cl)cc(C)c2OC[C@@H]2C[C@@H](O)CC(=O)O2)ccc1F class=yes
molecule="O=C1C[C@H](O)C[C@@H](COc2c(Cl)cc(Cl)cc2C(CCOc2ccc(F)cc2)c2ccc(F)cc2)O1 (stereo partly shown)" class=no
